Tested on: Colletotrichum gloeosporioides
Assay: Antifungal activity against Colletotrichum gloeosporioides 20122-CECT assessed as inhibition of radial growth at 50 ug/mL at 25 degC measured after 5 days
Type: functional
Conditions: 120 h, read-out: GI
If the reported inhibition of growth at 50 µg/mL equals or exceeds 30%, assign Criterion met. If not, assign Criterion not met.

>>> group_label("CC[C@@H](OC(C)=O)c1cccc(Cl)c1")
"Criterion not met"
>>> group_label("O[C@@H](c1ccccc1)c1ccc(Cl)cc1")
"Criterion met"
>>> group_label("CCC(=O)c1cccc(Cl)c1")
"Criterion not met"
>>> group_label("CC[C@@H](O)c1cccc(Cl)c1")
"Criterion met"
>>> group_label("CC[C@@H](OC(C)=O)c1ccc(Cl)cc1")
"Criterion not met"
>>> group_label("O=C(c1ccc(Cl)cc1)C1CC1 [(4-CHLOROPHENYL)(CYCLOPROPYL)METHANONE]")
"Criterion not met"
>>> group_label("CC[C@H](O)c1ccc(Cl)cc1")
"Criterion not met"
>>> group_label("O[C@@H](c1ccccc1)[C@@H](O)c1ccc(Cl)cc1")
"Criterion not met"
>>> group_label("CC[C@H](O)c1cccc(Cl)c1")
"Criterion met"
>>> group_label("CCC(O)c1ccc(Cl)cc1 (racemic)")
"Criterion not met"
>>> group_label("O[C@H](c1ccccc1)c1ccc(Cl)cc1")
"Criterion met"
>>> group_label("OC(c1ccccc1)c1ccc(Cl)cc1 (racemic)")
"Criterion met"
>>> group_label("Clc1ccc(/C=C/c2ccccc2)cc1")
"Criterion not met"
